Origin of measurements: patent US20240209100A1

- target or test system: T1, IL-18 receptor (IL-18Rα/IL-18Rβ) overexpressed on HEK-Blue IL-18 cells (Homo sapiens (Human), UniProt Q13478 19-541; O95256 20-599)
- T1 sequence 1: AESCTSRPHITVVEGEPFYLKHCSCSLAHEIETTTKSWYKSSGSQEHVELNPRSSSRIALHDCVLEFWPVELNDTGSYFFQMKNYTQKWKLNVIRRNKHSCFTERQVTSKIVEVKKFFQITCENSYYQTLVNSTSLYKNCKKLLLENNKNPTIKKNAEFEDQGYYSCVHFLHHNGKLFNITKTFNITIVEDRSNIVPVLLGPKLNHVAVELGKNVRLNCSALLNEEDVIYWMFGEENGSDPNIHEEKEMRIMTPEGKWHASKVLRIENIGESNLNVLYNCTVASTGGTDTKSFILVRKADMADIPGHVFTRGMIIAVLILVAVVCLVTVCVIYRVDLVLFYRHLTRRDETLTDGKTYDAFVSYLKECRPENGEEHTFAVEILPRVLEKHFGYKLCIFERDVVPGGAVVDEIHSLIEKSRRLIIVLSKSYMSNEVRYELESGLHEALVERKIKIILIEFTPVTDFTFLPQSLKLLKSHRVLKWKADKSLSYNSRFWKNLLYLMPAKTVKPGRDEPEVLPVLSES
- T1 sequence 2: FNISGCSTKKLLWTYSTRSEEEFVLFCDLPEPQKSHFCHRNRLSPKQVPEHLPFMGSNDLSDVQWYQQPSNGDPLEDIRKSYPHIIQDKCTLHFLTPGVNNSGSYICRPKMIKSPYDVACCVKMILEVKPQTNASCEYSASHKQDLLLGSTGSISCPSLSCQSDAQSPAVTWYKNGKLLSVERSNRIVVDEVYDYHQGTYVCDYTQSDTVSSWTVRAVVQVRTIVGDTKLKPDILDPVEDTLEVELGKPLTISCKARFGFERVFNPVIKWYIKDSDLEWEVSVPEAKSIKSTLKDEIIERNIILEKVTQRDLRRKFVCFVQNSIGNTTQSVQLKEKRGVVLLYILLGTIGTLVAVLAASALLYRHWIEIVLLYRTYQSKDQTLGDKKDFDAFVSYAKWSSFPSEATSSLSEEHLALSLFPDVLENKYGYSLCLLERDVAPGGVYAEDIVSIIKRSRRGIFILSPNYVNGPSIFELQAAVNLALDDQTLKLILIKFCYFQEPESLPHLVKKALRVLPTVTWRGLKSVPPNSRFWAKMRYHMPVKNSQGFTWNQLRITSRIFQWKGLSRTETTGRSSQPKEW
- test protocol: cell-based or functional assay
Reported HEK-Blue IL-18: EC50 values are given for each entry in this list.
Express it in pM; write the number only.

Observe how each entry below is paired with its result.
DGL078 (bispecific antibody, V domains shown) V domain 1: QVQLQESGGGLVQAGGSLRLSCIVSGSIVRIDFMGWYRQAPGKKRDMVATITTGGSTNYADSVKDRFTISRDNAKNTLSLQVNDLKPEDTAVYYCNSVVHTTSRPPVLYWGQGTQVTVSS V domain 2: EVQLVESGGGVAQAGGSLRLSCAASITSFSLNTMGYYRQLPGKQRELVAVESSSGITNYADSVKGRFTISRDGAKNTVFLQMNSLTPEDTAVYYCGGKLFGRDFWGQGTQVTVSS	24
DGL063 (bispecific antibody, V domains shown) V domain 1: QLQLVESGGGLVQPGGSLRLSCAASGKIFSINIMDWYRQAPGKERELVARISPGDIITYANDVKGRFTISRNNAKNTVYLQMNSLKPEDTAVYYCRWRQGAGDYWGRGTQVTVSS V domain 2: QVQLQESGGGLVQPGGSLGLSCAASGIKISVNSMAWYRQAPGERREMVAVISSGGSAVYADSVKGRFTISRDNAKNMVYLQMNSLKPEDTAVYYCHPGSAAYRDYWGQGTQVTVSS	14
DGL049 (bispecific antibody, V domains shown) V domain 1: QVQLQESGGGLVQAGGSLRLSCIVSGSIVRIDFMGWYRQAPGKKRDMVATITTGGSTNYADSVKDRFTISRDNAKNTLSLQVNDLKPEDTAVYYCNSVVHTTSRPPVLYWGQGTQVTVSS V domain 2: QVQLVESGGDLVLPGGSLKLSCEASGSISSRNSMAWYRRAPGKQRELVAAISSISSGGRTDYADFVKGRFTIFRDTAKNMVYLQMNNLKPEDTAVYDCDDPIRVASLAYDDWGQGTQVTVSS	10

Attention now turns to another entry.
For record DGL075 (bispecific antibody, V domains shown) V domain 1: EVQLVESGGGLVQPGGSLRLSCAASGSIFSINAMGWYRQAPGKQREVVATSTGGGMTNYADSVKGRFTISRDNAKNTVYLQMNSLKPEDTAVYYCNADKDPFFPGDYWGQGTQVTVSS V domain 2: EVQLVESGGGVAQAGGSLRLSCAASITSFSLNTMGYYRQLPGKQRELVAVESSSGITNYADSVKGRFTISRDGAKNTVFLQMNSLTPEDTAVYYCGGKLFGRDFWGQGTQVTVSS the listed HEK-Blue IL-18: EC50 is 28
